Tested on: MDA-MB-231
Assay: NCI tumour cell line growth inhibition, 48 h
Activity calls are given as the source filed them. Rule as the data show it: active = GI50 up to about 1.1 µM and inactive = higher.
REPORTED ENDPOINT: GI50

Report measured GI50; entry is CC1=C(C(=O)N[C@@H](CC(C)C)C(=O)O)N2C(=O)[C@@H](NC(=O)C(N)c3ccccc3)[C@H]2SC1 (stereo partly specified)
> 100 µM (inactive)

Supply GI50 value. Item: CNc1c2c(c3nc4ccccc4c4c3c1N=C4)NCCC2=O [PLAKINIDINE A]
3.86 µM (inactive)

For the compound Cc1ccc(C(CC(=O)C(C)(C)CN2CCCCC2)SCCS(=O)(=O)O)cc1 (stereo unspecified) , give its reported GI50.
34.7 µM (inactive)

Recall and state the measured GI50 for CC(C)(C)[C@H]1CCC2(OCCO2)[C@](O)(CCCO)C1 .
> 100 µM (inactive)

Quickly give me recorded GI50 for CC(=O)c1ccc(O)c(CN(C2CCCCC2)C2CCCCC2)c1O
> 100 µM (inactive)

Item O=C1/C(=C/c2ccc(Cl)cc2)CNC/C1=C\c1ccc(Cl)cc1 : provide GI50
2.88 µM (inactive)

Quick one: give measured GI50 for CC(=C/C=C/C=C(C)\C=C\C=C(\C)C(=O)O)/C=C/C=C(/C)C(=O)O
> 100 µM (inactive)

Provide measured GI50 value, entry: CC(C)(C)OC(=O)NC(Cc1ccccc1)OCc1ccccc1 (stereo unspecified)
15.3 µM (inactive)

Indicate its recorded GI50; the compound in question is [N-]=[N+]=Nc1cc(=O)n2c3c(cccc13)CCC2
> 100 µM (inactive)

Tell me its GI50 given COc1cc2c(cc1OCCCCOc1cc3c(cc1OC)C(=O)N1CCC[C@H]1C(=O)N3)N=C[C@@H]1CCCN1C2=O as the entry.
3.11 µM (inactive)

Answer with the recorded GI50 for the compound listed here: O=C1/C(=C/c2ccc3c(c2)OCO3)Sc2scc(-c3ccc(O)c(O)c3)[n+]21
3.54 µM (inactive)

Please supply the value of reported GI50 for the item COc1ccccc1N1C(=O)/C(=C\c2ccccc2)SC1c1cc(OC)c(OC)c(OC)c1 (stereo unspecified)
23.2 µM (inactive)

Please supply the value of reported GI50 for the item Clc1nc(Cl)c(Cl)c(Cl)n1
18 µM (inactive)

Report GI50 for COc1cccc(C(=O)Oc2ccc(OS(=O)(=O)c3ccc(C)cc3)cc2)c1C#N
65.6 µM (inactive)

Query GI50 for N#Cc1sc2c(c1OC(=O)c1ccco1)c(=O)n(-c1ccccc1)c(=S)n2-c1ccccc1
26.5 µM (inactive)

State, in one line, measured GI50 of C(/C=N/N=C1NCCCN1)=N\N=C1NCCCN1
> 100 µM (inactive)

Recall and state the measured GI50 for N#CCc1nc2cc(C(F)(F)F)ccc2s1 .
95.1 µM (inactive)

Identify GI50 associated with the compound C[Si](C)(C)CCOCN(C(=O)C1=CCC2(CC1)OCCO2)c1ccccc1I
22.8 µM (inactive)

Quote GI50 reported for N#Cc1c(-c2ccc(Cl)cc2)c2c([nH]c1=O)-c1cc([N+](=O)[O-])ccc1CCC2 please.
22.4 µM (inactive)

# return recorded GI50 for entry N#CCc1nc(-c2cc3ccc(O)cc3oc2=O)cs1
95.1 µM (inactive)

Provide only the value of recorded GI50 for Cc1ccc(C2=Nc3ccccc3SC(c3cccc([N+](=O)[O-])c3)C2)cc1 (stereo unspecified)
40.6 µM (inactive)
